Test system: Saccharomyces cerevisiae;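 further: PSI is a weighted mean of sequencing reads over stability bins, variants kept only with over 10 reads, mCherry proximal and sfGFP distal, peptide attached via GGGS linker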
EXPERIMENTAL_PROTOCOL: protein stability index of tFT-peptide fusion (C-terminal peptide) (PSI (0-1 scale)); higher = more stable (slower turnover)
CONDITIONS_USED: genetic background: wild type; temperature: 30 C
Catalogue of protein stability index values
Give the figure only, with no unit attached.

# SEQUENCE_CODE, protein stability index
measured = [
    ("RLLKRAVRKIFT", 0.618),
    ("PPPPPPPHLPSL", 0.711),
    ("DPTWIKKRPSIP", 0.666),
]

stdin: I have this sequence here, RSIQNLQENIIR , and I need its recorded protein stability index.
stdout: 0.663

stdin: One more sequence: ICRGLTVPGVAI
stdout: 0.612

stdin: One more sequence: RLKFMTGLFLWS
stdout: 0.73

stdin: One more sequence: ASCPLHFTDIRP
stdout: 0.679

stdin: One more sequence: PRPHPPPLPCPP
stdout: 0.714

stdin: One more sequence: GAEQSTDEFIRG
stdout: 0.706

stdin: One more sequence: VKRSGSDGALHR
stdout: 0.685
